# measurementProtocol: in vivo
# conditionsUsed: BALB/c, mouse, plasma, po, 10 mg/kg
measurementLabel: Cmax (ng/mL)
Kindly provide the numeric value in ng/mL only, without the unit symbol.

Supply recorded Cmax for O=C1CCc2cc(OC[C@H](O)CN3CCN(c4ccc(C(F)(F)F)cc4)CC3)ccc2N1 [NP10679] here.
3600

* * *

# measurementProtocol: SAD study NP10679-101, plasma pharmacokinetics
# Type: in vivo, human
# conditionsUsed: human, plasma, iv, 50 mg, Cohort 3, 50 mg single IV
measurementLabel: clearance (mL/min)
Supply the numeric figure in mL/min, leaving out any unit text.

Note down clearance recorded for `O=C1CCc2cc(OC[C@H](O)CN3CCN(c4ccc(C(F)(F)F)cc4)CC3)ccc2N1`
183

* * *

# measurementProtocol: SAD study NP10679-101, plasma pharmacokinetics
# Type: in vivo, human
# conditionsUsed: human, plasma, iv, 150 mg, Cohort 5, 150 mg single IV
measurementLabel: clearance
Param answer (str): number followed by unit.

Give clearance for the following molecule: O=C1CCc2cc(OC[C@H](O)CN3CCN(c4ccc(C(F)(F)F)cc4)CC3)ccc2N1 [NP10679]
182 mL/min

* * *

# systemTested: Alpha2C (Homo sapiens (Human))
# Sequence (P18825 whole entry): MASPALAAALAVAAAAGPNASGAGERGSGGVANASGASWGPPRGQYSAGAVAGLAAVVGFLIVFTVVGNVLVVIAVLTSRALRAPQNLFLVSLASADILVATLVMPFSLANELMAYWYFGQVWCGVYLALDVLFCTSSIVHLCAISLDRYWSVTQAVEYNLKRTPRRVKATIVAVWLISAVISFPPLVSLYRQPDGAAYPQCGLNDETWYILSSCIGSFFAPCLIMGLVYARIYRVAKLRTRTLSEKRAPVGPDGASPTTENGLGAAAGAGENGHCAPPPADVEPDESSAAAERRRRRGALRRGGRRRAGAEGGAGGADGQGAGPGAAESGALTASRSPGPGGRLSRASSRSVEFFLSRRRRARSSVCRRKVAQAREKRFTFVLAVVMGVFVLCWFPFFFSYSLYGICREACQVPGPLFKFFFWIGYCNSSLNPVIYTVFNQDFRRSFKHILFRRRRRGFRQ
# measurementProtocol: Off-target radioligand binding displacement (NIMH PDSP)
# conditionsUsed: pH 7.4
measurementLabel: Ki

Assign Ki to the following record: `O=C1CCc2cc(OC[C@H](O)CN3CCN(c4ccc(C(F)(F)F)cc4)CC3)ccc2N1`
3.09 µM

* * *

# measurementProtocol: Pharmacokinetics in the brain compartment compared to plasma in mice
# Assay type: in vivo
# conditionsUsed: BALB/c, mouse, brain, intravenous, 3 mg/kg, 3 mg/kg IV, Study 2A (2% DMA formulation), 1 hour; read-out: Brain Conc.
measurementLabel: concentration at 1 h (ng/g)
Please give a number only; it is taken to be in ng/g.

Quickly give me recorded concentration at 1 h for O=C1CCc2cc(OC[C@H](O)CN3CCN(c4ccc(C(F)(F)F)cc4)CC3)ccc2N1 [NP10679]
1420

* * *

# measurementProtocol: Pharmacokinetics in the brain compartment compared to plasma in mice
# Type: in vivo
# conditionsUsed: BALB/c, mouse, brain, intravenous, 3 mg/kg, 3 mg/kg IV, Study 1, 1 hour; read-out: Brain Conc.
measurementLabel: concentration at 1 h
Numeric answer plus unit only.

Identify measured concentration at 1 h corresponding to `O=C1CCc2cc(OC[C@H](O)CN3CCN(c4ccc(C(F)(F)F)cc4)CC3)ccc2N1`
1740 ng/g

* * *

# measurementProtocol: in vivo
# conditionsUsed: BALB/c, mouse, plasma, iv, 3 mg/kg
measurementLabel: Vd (L/kg)
Could you give me the number in L/kg? Just the number is fine.

// Input: O=C1CCc2cc(OC[C@H](O)CN3CCN(c4ccc(C(F)(F)F)cc4)CC3)ccc2N1 [NP10679] . Output its Vd only.
1.59

* * *

# measurementProtocol: SAD study NP10679-101, plasma pharmacokinetics
# Format: in vivo, human
# conditionsUsed: human, plasma; Cohort 5, 150 mg single IV
measurementLabel: AUC(0-inf) (ng·h/mL)
Return type: number; implicit unit ng·h/mL.

Please give the documented AUC(0-inf) of `O=C1CCc2cc(OC[C@H](O)CN3CCN(c4ccc(C(F)(F)F)cc4)CC3)ccc2N1`
13800
